- Tested on: M1 macrophages and M2 macrophages differentiated from mouse bone marrow cells
- procedure_text: Subtype identification by staining and flow cytometry of M1 and M2 macrophages differentiated from mouse bone marrow cells
- Format: cell-based, Balb/c mouse
- cond: M1 vs M2 macrophages from mouse bone marrow cells; general formula (11) dyes (Table 9)
Lab note: cut-off is 0.6. Strictly less in Resolution ratio R is yes (1). Exactly 0.6 or more is no (0).

compound="CC1=C(S(=O)(=O)O)C(C)=[N+]2C1=C(C)c1c(C)c(S(=O)(=O)O)c(C)n1[B-]2(F)F [(165)]" assigned_category="yes (1)"

-- ask Just wondering, is Resolution ratio R of Cc1cc(C)n2c1C=C1C=CC(CCC(=O)NN)=[N+]1[B-]2(F)F [(166)] below 0.6?
-- reply no (0)

-- ask Just wondering, is Resolution ratio R of Cc1cc(C)n2c1C=C1C=CC(CCC(=O)c3c(F)c(F)c(S(=O)(=O)O)c(F)c3F)=[N+]1[B-]2(F)F [(167)] below 0.6?
-- reply yes (1)

-- ask Just wondering, is Resolution ratio R of CCC1=C(C)C2=C(C)c3c(C)c(CC)c(C)n3[B-](C#C[Si](C)(C)C)(C#C[Si](C)(C)C)[N+]2=C1C [compound (154)] below 0.6?
-- reply yes (1)

-- ask Just wondering, is Resolution ratio R of CCC1=C(C)C2=C(C)c3c(C)c(CC)c(C)n3[B-](F)(F)[N+]2=C1C [compound (139)] below 0.6?
-- reply no (0)

Hey, just so you know, these numbers are from patent US10041937B2.
